Consider the following molecules; for each one, report its %Inh.
- Test system: ERK1;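 also: KINOMEscan kinase panel screen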
- Construct: gene MAPK3
- reported-conditions: concentration: 1 μM, replicates: in singlicate; n = 1
Numbers only, in %.

{"molecule": "Cc1ccc(NC(=O)c2ccc(Cl)cc2)cc1-c1ccc(C(=O)Nc2ccncc2)cc1", "reported-result": 0}
{"molecule": "Cc1ccc(NC(=O)Nc2ccc(Cl)cc2)cc1-c1ccc(C(=O)Nc2ccncc2)cc1", "reported-result": 0}
{"molecule": "COc1ccc(Nc2nccc(N3CCC(NC(=O)c4cc5ccccc5s4)C3)n2)cc1 (stereo not drawn)", "reported-result": 0}
{"molecule": "Fc1ccc(-c2nn3cccc(F)c3c2-c2ccncc2)cc1", "reported-result": 21}
{"molecule": "CCCCc1nn2ncccc2c1-c1ccnc(NC2CC2)n1", "reported-result": 0}

Need %Inh for each of these molecules.
1. COc1cccc(CNC(=O)NC2CCN(c3ccnc(Nc4ccc(F)cc4)n3)C2)c1 (stereo not drawn)
2. COc1nccc(-c2c(-c3ccc(F)cc3)ncn2CCCN2CCOCC2)n1
3. COc1ccc(Nc2nccc(NCCNC(=O)Nc3cc(C)ccc3C)n2)cc1
4. CNc1nc(-c2ccc3c(N)n[nH]c3c2)cc(N2C[C@@H](C(=O)Nc3ccccc3)CC[C@H]2C)n1
5. COc1ccc(Nc2nccc(-c3ccc(NC(=O)c4cc5cc(F)ccc5[nH]4)cc3)n2)cc1

Reply:
0
0
1
0
0

Go through the list and state %Inh for each entry.
1. Fc1ccc(-c2nc3n(c2-c2ccncc2)CCS3)cc1
2. COc1ccc(Nc2nccc(N3CCC(NC(=O)C(C)c4ccc(Cl)cc4)C3)n2)cc1 (stereo not drawn)
3. CC[C@@H]1CO[C@H](C(=O)Nc2ccccc2)CN1c1cc(-c2ccc3c(N)n[nH]c3c2)nc(NC)n1
4. O=C(Nc1n[nH]c2nc(-c3cccs3)c(Br)cc12)C1CC1
5. CNC(=O)c1ccc(C)c(-n2c(C)cc(OCc3ccc(F)cc3F)c(Br)c2=O)c1
6. O=c1cc(N2CCOCC2)nc2n(Cc3cccc(Cl)c3Cl)c3ccccc3n12

Reply:
[10, 0, 0, 0, 0, 0]

# map each molecule to its %Inh
1. CN1c2ccc(-c3ccc(C(N)=O)cc3)cc2-c2[nH]ncc2S1(=O)=O
2. COc1ccc(CSc2nnc(-c3ccc4nccn4c3)o2)cc1C(F)(F)F

Reply:
0
0
